- Tested on: K. pneumoniae wbbM mutant (NB29018) co-cultured with T. pyriformis
- Protocol Notes: Tp/Kp co-culture assay with cell surface-defective wbbM mutant
- Type: cell-based, Klebsiella pneumoniae
- Settings: Tp threshold 4625–18,500 Tp/mL

{"Compound": "COc1ccc(-c2csc(NC(=O)c3ccc(C(=O)Nc4nc(-c5ccc(OC)c(OC)c5)cs4)s3)n2)cc1OC [compound 62]", "activity in the Tp/Kp wbbM assay": "retained potency"}
{"Compound": "Cc1nnc(SCC(=O)Nc2ccc(Br)cc2)nc1O [compound 35, Cc1nnc(nc1O)SCC(=O)Nc2ccc(Br)cc2]", "activity in the Tp/Kp wbbM assay": "retained activity"}
{"Compound": "Cc1nnc(-c2ccccc2)nc1O [compound 34, Cc1nnc(nc1O)c2ccccc2]", "activity in the Tp/Kp wbbM assay": "retained activity"}
{"Compound": "CCOC(=O)c1ccc2nc(NC(=O)c3cccs3)sc2c1 [compound 64, CCOC(=O)c3ccc2N=C(NC(=O)C1=CC=CS1)Sc2c3]", "activity in the Tp/Kp wbbM assay": "retained potency"}

---

- System: K. pneumoniae NB29017 co-cultured with T. pyriformis
- Protocol Notes: T. pyriformis/K. pneumoniae
- Format: cell-based, Klebsiella pneumoniae
- Settings: read-out: Tp/Kp IC50, archived powder, side by side on the same assay plate, Tp set at 25000
I'd be grateful if you could share measured pIC50 for these entries.
One number for each entry, as −log10 of the molar value.

{"Compound": "COc1ccc(-c2csc(NC(=O)c3ccc(C(=O)Nc4nc(-c5ccc(OC)c(OC)c5)cs4)s3)n2)cc1OC [compound 62]", "pIC50": 8.77}

Query block: Quick one: give measured pIC50 for CCOC(=O)c1ccc2nc(NC(=O)c3cccs3)sc2c1 [compound 64, CCOC(=O)c3ccc2N=C(NC(=O)C1=CC=CS1)Sc2c3]
Result block: 6.44

---

- Tested on: K. pneumoniae NB29017 co-cultured with T. pyriformis
- Protocol Notes: T. pyriformis/K. pneumoniae
- Type: cell-based, Klebsiella pneumoniae
- Settings: read-out: Tp/Kp IC50, resynthesis batch, side by side on the same assay plate, Tp set at 25000
Endpoint: pIC50
One number for each entry, as −log10 of the molar value.

{"Mol": "CCOC(=O)c1ccc2nc(NC(=O)c3cccs3)sc2c1", "pIC50": 6.73}

// below: pIC50 requested for another molecule
Query block: # assay system K. pneumoniae NB29017 co-cultured with T. pyriformis: give pIC50 of COc1ccc(-c2csc(NC(=O)c3ccc(C(=O)Nc4nc(-c5ccc(OC)c(OC)c5)cs4)s3)n2)cc1OC
Result block: 9.17

---

- Protocol Notes: Cytotoxicity in K562 cells
- Format: cell-based
- Settings: human
Binarize IC50 at 70 µM; below is satisfied, at or above is not satisfied.

{"Compound": "COc1ccc2nc(NC(=O)c3cc(=O)c4ccccc4o3)sc2c1 [compound 63]", "Assigned Category": "satisfied"}
{"Compound": "COc1ccc(-c2csc(NC(=O)c3ccc(C(=O)Nc4nc(-c5ccc(OC)c(OC)c5)cs4)s3)n2)cc1OC [compound 62]", "Assigned Category": "not satisfied"}

Query block: Take the compound O=C(O)c1cc(Br)ccc1F [compound 166, OC(=O)c1cc(Br)ccc1F] and say whether its IC50 is less than 70 µM.
Result block: not satisfied

Query block: Take the compound C=CC1(C)CC(OC(=O)CSc2ccc(N)cc2)C2(C)C(C)CCC3(CCC(=O)C32)C(C)C1O (stereo not shown) [compound 191] and say whether its IC50 is less than 70 µM.
Result block: satisfied

Query block: Take the compound CCOc1cccc(C(=O)Nc2ccc(-c3nc4ccccc4[nH]3)cc2)c1 [compound 79] and say whether its IC50 is less than 70 µM.
Result block: not satisfied

Query block: Take the compound CCN(CC)/C(N)=N\c1ccc(NC(=O)c2ccc(C(=O)Nc3ccc(/N=C(\N)N(CC)CC)cc3)cc2)cc1 [compound 170] and say whether its IC50 is less than 70 µM.
Result block: not satisfied

Query block: Take the compound CCOc1ccc2nc(NC(=O)c3cc(=O)c4ccc(C)cc4o3)sc2c1 [compound 65] and say whether its IC50 is less than 70 µM.
Result block: not satisfied

Query block: Take the compound CCCCNC(=O)NS(=O)(=O)c1cccs1 [compound 82, CCCCNC(=O)NS(=O)(=O)C1=CC=CS1] and say whether its IC50 is less than 70 µM.
Result block: not satisfied

Query block: Take the compound Cc1cc(C)c2c(=O)cc(C(=O)Nc3nc4ccc(F)cc4s3)oc2c1 [compound 68] and say whether its IC50 is less than 70 µM.
Result block: not satisfied

Query block: Take the compound COC1C(OC(C)=O)CC(=O)OC(C)CC2OC2/C=C/C(=O)C(C)CC(CC=O)C1OC1OC(C)C(OC2CC(C)(O)C(OC(=O)CC(C)C)C(C)O2)C(N(C)C)C1O (stereo not shown) [compound 186] and say whether its IC50 is less than 70 µM.
Result block: satisfied

Query block: Take the compound Cc1nc(O)n2ncc(Br)c2n1 [compound 187, CC2=NC1=C(Br)C=NN1C(O)=N2] and say whether its IC50 is less than 70 µM.
Result block: not satisfied

Query block: Take the compound O=C(CCCN1CCC(O)(c2ccc(Br)cc2)CC1)c1ccc(F)cc1 [compound 185] and say whether its IC50 is less than 70 µM.
Result block: satisfied

Query block: Take the compound O=C(Nc1nnc(Cl)s1)c1ccco1 [compound 67, O=C(NC1=NN=C(Cl)S1)C2=CC=CO2] and say whether its IC50 is less than 70 µM.
Result block: not satisfied

Query block: Take the compound COc1ccc(Br)c(/C=N/NC(=O)COc2ccc(-c3ccccc3)cc2)c1 [compound 69] and say whether its IC50 is less than 70 µM.
Result block: not satisfied

Query block: Take the compound O=[N+]([O-])c1cnc2ccc(Cl)cc2c1O [compound 182, [O-][N+](=O)c2cnc1ccc(Cl)cc1c2O] and say whether its IC50 is less than 70 µM.
Result block: not satisfied
